- Tested On: NS3h 1b (con1)
- Protocol Notes: NS3 helicase inhibitors across HCV genotypes, late-stage follow-up, selectivity assay for HCV NS3 helicase inhibitor project, biochemical, real-time fluorescence, genotypes 2a and 1b, Set 2 (AID 504419)
- Assay Setup: Recombinant NS3 helicase, real-time fluorescence unwinding
Active and inactive are the calls of the source. No rule for the calls is given here.
Hi! Could you answer with just one of these? Y (active), N (inactive)

Below, 5 compounds whose answers are already recorded.
>>> print(df.to_string())
                                   compound       tested_on  class_label
0  Cc1ccc(C(=O)C2=C(O)C(=O)N(Cc3ccccc3)C2c2cc(Cl)cc(Cl)c2)o1 (stereo not given)  NS3h 1b (con1)            N
1  CNc1ccc(Br)cc(C(=O)/C=C/c2cc(OC)ccc2OC)c1=O  NS3h 1b (con1)            N
2  CN(C)c1ccc(O)c2c1C[C@H]1C[C@H]3[C@H](N(C)C)C(=O)C(C(N)=O)=C(O)[C@@]3(O)C(=O)C1=C2O  NS3h 1b (con1)            N
3  COc1cc(OC)c2ccc(=O)oc2c1[C@H](CCN1CCN(c2ccccc2)CC1)c1ccc(N(C)C)cc1  NS3h 1b (con1)            N
4  Cc1cc(N2C(=O)C(O)=C(C(=O)c3ccc(C)o3)C2c2cccc(Cl)c2)no1 (stereo not given)  NS3h 1b (con1)            N

Hi team, can someone confirm the assay call for `O=C(c1ccc2nc(-c3ccco3)c(-c3ccco3)nc2c1)N1CCN(c2ccccc2)CC1` ?
N

###

- Tested On: NS3h 1b (con1)
- Protocol Notes: NS3 helicase inhibitors across HCV genotypes, late-stage follow-up, selectivity assay for HCV NS3 helicase inhibitor project, biochemical, real-time fluorescence, genotypes 2a and 1b, Set 2 (AID 504419)
- Assay Setup: Recombinant NS3 helicase, real-time fluorescence unwinding
Calls of active or inactive are those of the source. No rule for the calls is given here.
Hi! Could you answer with just one of these? true for active, false for inactive

Below, 3 compounds whose answers are already recorded.
>>> df
                                   compound  class_label
0  Cc1ccc(NC(=O)Nc2ccc(-c3nc4ccc(-c5nc6ccc(C)c(S(=O)(=O)O)c6s5)cc4s3)cc2)cc1         true
1  Cc1ccc2nc(-c3ccc4nc(-c5ccc(NC(=O)c6ccc(N)cc6)cc5)sc4c3)sc2c1S(=O)(=O)O         true
2  Cc1ccc2nc(-c3ccc4nc(-c5ccc(NC(=O)c6ccc(N(C)C)cc6)cc5)sc4c3)sc2c1S(=O)(=O)O        false

Consider the record given below.
Hi team, can someone confirm the assay call for `COc1ccc(S(=O)(=O)Nc2ccc(-c3nc4ccc(-c5nc6ccc(C)c(S(=O)(=O)O)c6s5)cc4s3)cc2)cc1` ?
false

###

- Tested On: NS3h 2a (JFH1)
- Protocol Notes: NS3 helicase inhibitors across HCV genotypes, late-stage follow-up, selectivity assay for HCV NS3 helicase inhibitor project, biochemical, real-time fluorescence, genotypes 2a and 1b, Set 2 (AID 504419)
- Assay Setup: Recombinant NS3 helicase, real-time fluorescence unwinding
Activity calls are given as the source filed them. The rule behind the calls is not given here.
Hi! Could you answer with just one of these? yes (1) (active), no (0) (inactive)

Hi team, can someone confirm the assay call for CC1CCCCC1NC(=O)COC(=O)c1c2c(nc3ccccc13)/C(=C/c1ccco1)CC2 (centres undefined) ?
no (0)

Hi team, can someone confirm the assay call for CCCCOc1ccc(C2C(C(=O)c3ccc(C)o3)=C(O)C(=O)N2c2cc(C)on2)cc1 (centres undefined) ?
no (0)

Hi team, can someone confirm the assay call for `CCc1cc2c(=O)n(Cc3ccco3)c(SCc3c(C)noc3C)nc2s1` ?
no (0)

Hi team, can someone confirm the assay call for `Cc1ccc(NC(=O)C2=C(c3ccccc3)S(=O)(=O)CCS2(=O)=O)cc1` ?
no (0)

Hi team, can someone confirm the assay call for `COc1cc2oc(=O)cc(-c3ccc(-c4ccc(CO)cc4)cc3)c2c(OC)c1OC` ?
no (0)

Hi team, can someone confirm the assay call for `COC(=O)c1ccc(C(=O)Nc2ccc(-c3nc4ccc(-c5nc6ccc(C)c(S(=O)(=O)O)c6s5)cc4s3)cc2)cc1` ?
yes (1)
